# System: Oryza sativa, (L.) Tebonnet
# measurement-protocol: Rice tolerance to post-transplant applications under flooded paddy conditions (Example 187), ORYSAT (Rice, Tebonnet); further: meaning of each grade not given here
# test-parameters: Rate 0.0320 kg/ha, rated three to four weeks after treatment
readout-name: herbicidal effect rating ORYSAT
One number for each entry.

Solved cases below.
Cn1c(C(F)(F)F)cc(=O)n(-c2ccc3snc(C(=O)NS(=O)(=O)Cc4ccccc4)c3c2)c1=O [Example 341] : 1.5
Cn1c(C(F)(F)F)cc(=O)n(-c2ccc3snc(C(=O)NCC(=O)O)c3c2)c1=O [Example 579] : 0.0
COc1ccc(O)c(-c2nsc3ccc(-n4c(=O)cc(C(F)(F)F)n(C)c4=O)cc23)c1 [Example 361] : 0.0
Cn1c(C(F)(F)F)cc(=O)n(-c2ccc3snc(COS(=O)(=O)c4ccccc4)c3c2)c1=O [Example 382] : 5.0
Cn1c(C(F)(F)F)cc(=O)n(-c2ccc3snc(C(C#N)=Cc4ccccn4)c3c2)c1=O [Example 592] : 2.0
COCc1nsc2cc(F)c(-n3c(=O)cc(C(F)(F)F)n(C)c3=O)cc12 [Example 378] : 9.0

List the reported herbicidal effect rating ORYSAT of each compound below.
1. CCCCS(=O)(=O)NC(=O)COc1ccccc1-c1nsc2ccc(-n3c(=O)cc(C(F)(F)F)n(C)c3=O)cc12 [Example 574]
2. COC(=O)COc1ccc(C)cc1-c1noc2cc(F)c(-n3c(=O)cc(C(F)(F)F)n(C)c3=O)cc12 [Example 359]
3. Cn1c(C(F)(F)F)cc(=O)n(-c2ccc3snc(COCc4ccc(Cl)c(Cl)c4)c3c2)c1=O [Example 586]
4. CC(Br)c1nsc2ccc(-n3c(=O)cc(C(F)(F)F)n(C)c3=O)cc12 (stereo not drawn) [Example 339]
5. Cn1c(C(F)(F)F)cc(=O)n(-c2ccc3snc(C#N)c3c2)c1=O [Example 373]
6. C=CCC(C#N)(CC=C)c1nsc2ccc(-n3c(=O)cc(C(F)(F)F)n(C)c3=O)cc12 [Example 580]
7. CC(=O)NCCOC(=O)c1nsc2ccc(-n3c(=O)cc(C(F)(F)F)n(C)c3=O)cc12 [Example 387]

[reply]
1: 3.0; 2: 6.5; 3: 1.0; 4: 5.0; 5: 5.5; 6: 1.5; 7: 0.0

Parameters: items (list). Returns: herbicidal effect rating ORYSAT for each item.
1. C=CS(=O)(=O)NC(=O)C(C)Oc1ccc(C)cc1-c1nsc2ccc(-n3c(=O)cc(C(F)(F)F)n(C)c3=O)cc12 (stereo not drawn) [Example 570]
2. CCCS(=O)(=O)NC(=O)C(C)Oc1ccc(C)cc1-c1nsc2ccc(-n3c(=O)cc(C(F)(F)F)n(C)c3=O)cc12 (stereo not drawn) [Example 569]

[reply]
0.0
0.0
